experiment: folding stability dG unfold from chymotrypsin proteolysis; higher = more stable
For each entry below, report its folding stability dG unfold value.
Give bare numbers, in kcal/mol.

residues="SAGGSAGGSLTIRFPEELSPEEAVELAEGLVRELFPEDVPVTVTVVFYDPETGEELTIPAELASAGGSAGGS [r12_1051_TrMRF]" assay_result=1.35
residues="SAWVIPFEVRLPGSPEQARRQVEEWADNIANRYQQNGFRVVDIKIDEIEPDNVRVRLTIQIVPPGQEIPSAG [r14_973_TrROS]" assay_result=2.52
residues="GYTITSEVEEFEDPNSDAKYTKVTIPVVDGDPEVAREAAEEIAKERFGPGATLDIKYDPETGTVTATFTVAS [r1_273_JUSTAS]" assay_result=0.379

Now for a further sequence.
Input line: Name the recorded folding stability dG unfold for SAGGPGWVTVEFWIPIEPDPNQTRDDVKEKAEEIVHEMAEYHPQFGITNVKVDVDPEEGWVKVSIVWPSAGG [r13_1011_TrROS] .
Output line: 1.58
